Tested on: A. baumannii KAB1544 and efflux overexpression mutants
Assay: Broth microdilution MIC, isogenic A. baumannii overexpression efflux mutants
Format: cell-based
Settings: Acinetobacter baumannii, AdeS G103D; AdeABC overexpressed; read-out: MIC
As shown below, each of these compounds has a reported MIC value.
readout: MIC (µg/mL)

# compound, reported_measurement
data = [
    ("CNC(C)C1CCC(N)C(OC2C(N)CC(N)C(OC3OCC(C)(O)C(NC)C3O)C2O)O1 (stereo not shown)", 2),
    ("CC1(C)[C@H](C(=O)O)N2C(=O)C[C@H]2S1(=O)=O", 2),
    ("C[C@@H](O)[C@H]1C(=O)N2C(C(=O)O)=C(SCCN=CN)C[C@H]12", 0.25),
    ("CC1=C[C@@H]2CN(C(=O)N2OS(=O)(=O)O)[C@@H]1C(N)=O", 64),
]

====

As shown below, each of these molecules has a reported % WT value.
System: A. baumannii PBP3 Q488K
Experiment: Acylation rate constant (kinact/Ki), fluorescence anisotropy competition with BOCILLIN
readout: % WT (%)

# structure_smiles, readout, reported_measurement
records = [
    ("C[C@@H](O)[C@H]1C(=O)N2C(C(=O)O)=C(SCCN=CN)C[C@H]12", "% WT", 82.2),
    ("C[C@@H](O)[C@H]1C(=O)N2C(C(=O)O)=C(S[C@@H]3CN[C@H](C(=O)N(C)C)C3)[C@H](C)[C@H]12", "% WT", 78),
    ("C[C@H]1[C@H](NC(=O)/C(=N\\OC(C)(C)C(=O)O)c2csc(N)n2)C(=O)N1S(=O)(=O)O", "% WT", 65.7),
]

====

Target: A. baumannii PBP3 N392T
Assay: Acylation rate constant (kinact/Ki), fluorescence anisotropy competition with BOCILLIN
Details: average ± SD
As shown below, each of these compounds has a reported k inact/K i value.

# structure_smiles, k inact/K i
rows = [
    ("CC1(C)[C@H](C(=O)O)N2C(=O)C[C@H]2S1(=O)=O", "18 ± 1 ([2]) M^-1s^-1"),
    ("C[C@@H](O)[C@H]1C(=O)N2C(C(=O)O)=C(SCCN=CN)C[C@H]12", "790 ± 50 ([2]) M^-1s^-1"),
    ("C[C@H]1[C@H](NC(=O)/C(=N\\OC(C)(C)C(=O)O)c2csc(N)n2)C(=O)N1S(=O)(=O)O", "160 ± 20 ([2]) M^-1s^-1"),
    ("C[C@@H](O)[C@H]1C(=O)N2C(C(=O)O)=C(S[C@@H]3CN[C@H](C(=O)N(C)C)C3)[C@H](C)[C@H]12", "8,200 ± 200 ([2]) M^-1s^-1"),
]

====

System: ABC clinical isolates with SUL-DUR MIC > 4 µg/mL
Assay: microbe, parasite or virus in culture
Format: cell-based, Acinetobacter baumannii-calcoaceticus complex
Conditions: Acinetobacter, read-out: MIC Min

# structure_smiles, experimental_target, unit_descriptor, MIC
records = [
    ("CN(C)c1cc(NC(=O)CNC(C)(C)C)c(O)c2c1C[C@H]1C[C@H]3[C@H](N(C)C)C(O)=C(C(N)=O)C(=O)[C@@]3(O)C(O)=C1C2=O", "ABC clinical isolates with SUL-DUR MIC > 4 µg/mL", "µg/mL", 0.13),
    ("C[C@@H](O)[C@H]1C(=O)N2C(C(=O)O)=C(S[C@@H]3CN[C@H](C(=O)N(C)C)C3)[C@H](C)[C@H]12", "ABC clinical isolates with SUL-DUR MIC > 4 µg/mL", "µg/mL", 32),
    ("C[C@@H](O)[C@H]1C(=O)N2C(C(=O)O)=C(SCCN=CN)C[C@H]12", "ABC clinical isolates with SUL-DUR MIC > 4 µg/mL", "µg/mL", 16),
    ("CC1(C)[C@H](C(=O)O)N2C(=O)C[C@H]2S1(=O)=O", "ABC clinical isolates with SUL-DUR MIC > 4 µg/mL", "µg/mL", 8),
]

The values you see were collected from paper PMC10648852.
